Just for reference, patent US12371454B2 is where these values come from.

Would you kindly list pIC50 for each of these compounds?
# MEASURED_ON: Kras and SOS1 (biotin-tagged human Kras loaded with GDP, His-tagged human SOS1) (Homo sapiens, UniProt P01116, G12D)
# Construct: made in house; host or cells: E. coli (stated for Kras only)
# Sequence (P01116 1-188 isoform P01116-2 G12D): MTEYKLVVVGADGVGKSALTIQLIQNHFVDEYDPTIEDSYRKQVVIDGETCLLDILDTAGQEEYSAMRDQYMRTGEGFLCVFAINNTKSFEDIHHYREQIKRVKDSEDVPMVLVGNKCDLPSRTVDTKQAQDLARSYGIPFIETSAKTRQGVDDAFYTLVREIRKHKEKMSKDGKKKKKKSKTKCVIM
# MEASUREMENT_NOTES: Protein-protein interaction inhibition between Kras and SOS1 (KrasGl2D-SOS PPI) using AlphaScreen
# Type: binding
# CONDITIONS_USED: AlphaScreen; biotin-tagged human Kras loaded with GDP, His-tagged human SOS1; read-out: KRAS G12D-SOS PPI IC50
Starred links: 1 amine or outer side, 2 acyl side, 3 side chain; linkers in the order of their positions; H or OH if unused. Positions of bridges follow the written chain, without caps; N, C: chain ends. Non-standard residues stand in square brackets, D forms with d. Residues, ends and D or L forms follow the SMILES beside them. *: point of attachment. hPhe(3-Cl-4-CF3) = N[C@@H](CCc1ccc(C(F)(F)F)c(Cl)c1)C(=O)O; X19 = CC(C)(C)Oc1cc(CC[C@H](N[*:1])C(=O)[*:2])cc(Cl)c1Cl; hPhe(3-F,4-CF3) = N[C@@H](CCc1ccc(C(F)(F)F)c(F)c1)C(=O)O; X5 = CC(C)(C)NC(=O)COC[C@H](CC(=O)[*:1])N[*:2]; NMePhe(4-Cl) = CN[C@@H](Cc1ccc(Cl)cc1)C(=O)O; NMePhe(4-Me) = CN[C@@H](Cc1ccc(C)cc1)C(=O)O; NMeCha = CN[C@@H](CC1CCCCC1)C(=O)O; NMeF = CN[C@@H](Cc1ccccc1)C(=O)O; NMeI = CC[C@H](C)[C@H](NC)C(=O)O; NMeD = CN[C@@H](CC(=O)O)C(=O)O; NMeL = CN[C@@H](CC(C)C)C(=O)O; NMeV = CN[C@H](C(=O)O)C(C)C; d(β3hA) = C[C@@H](N)CC(=O)O; NMeA = CN[C@@H](C)C(=O)O; NMeAib = CNC(C)(C)C(=O)O; Piperidide = C1CCN(*)CC1; Pyrrolidide = C1CCN(*)C1; Ac5c = NC1(C(=O)O)CCCC1; Aze = O=C(O)[C@@H]1CCN1; Sar = CNCC(=O)O
Please note pIC50 is a logarithmic value: minus log10 of concentration in mol/L. Answer with that number alone.

Noted for COC[C@@H]1NC(=O)[C@H](CC(C)C)N(C)C(=O)C[C@@H](C(=O)N2CCCCC2)N(C)C(=O)[C@H](C(C)C)N(C)C(=O)C2(CCCC2)NC(=O)[C@@H]2CCCN2C(=O)[C@H](CCc2ccc(C(F)(F)F)c(Cl)c2)NC(=O)CN(C)C(=O)[C@H](CC2CCCCC2)N(C)C(=O)[C@@H]2CCN2C(=O)[C@H](C)N(C)C1=O [Compound 7] ([NMeL]S(Me)[NMeA][Aze][NMeCha][Sar][hPhe(3-Cl-4-CF3)]P[Ac5c][NMeV][NMeD]-Piperidide; lactam N-11) : its pIC50 reads 7.74

The reported value for CC[C@H](C)[C@@H]1NC(=O)[C@H](CC(C)C)N(C)C(=O)C[C@@H](COCC(=O)NC(C)(C)C)NC(=O)[C@H]([C@@H](C)CC)N(C)C(=O)C2(CCCC2)NC(=O)[C@@H]2CCCN2C(=O)[C@H](CCc2ccc(C(F)(F)F)c(Cl)c2)NC(=O)CN(C)C(=O)[C@H](Cc2ccc(C)cc2)N(C)C(=O)[C@@H]2CCN2C(=O)[C@H](C)N(C)C1=O [Compound 1960] ([NMeL]I[NMeA][Aze][NMePhe(4-Me)][Sar][hPhe(3-Cl-4-CF3)]P[Ac5c][NMeI]; linker N-C via X5) in terms of pIC50 is 7.25

pIC50 recorded for this compound, CC[C@H](C)[C@@H]1NC(=O)[C@H](C)N(C)C(=O)C[C@@H](C)NC(=O)[C@H](C(C)C)N(C)C(=O)[C@H](Cc2ccccc2)N(C)C(=O)[C@H](CC(C)C)N(C)C(=O)[C@H](CCc2ccc(C(F)(F)F)c(Cl)c2)NC(=O)CN(C)C(=O)[C@H](Cc2ccc(Cl)cc2)N(C)C(=O)CN(C)C(=O)CN(C)C1=O [Compound 1079] (cyclo(I[Sar][Sar][NMePhe(4-Cl)][Sar][hPhe(3-Cl-4-CF3)][NMeL][NMeF][NMeV][d(β3hA)][NMeA])) , is 7.82

Please fill in: pIC50 reported for CC[C@H](C)[C@@H]1NC(=O)[C@H](C)N(C)C(=O)C[C@@H](C(=O)N2CCCCC2)N(C)C(=O)[C@H](C(C)C)N(C)C(=O)C2(CCCC2)NC(=O)[C@@H]2CCCN2C(=O)[C@H](CCc2cc(Cl)c(Cl)c(OC(C)(C)C)c2)NC(=O)CN(C)C(=O)[C@H](CC2CCCCC2)N(C)C(=O)CN(C)C(=O)CN(C)C1=O [Compound 2073] ([NMeA]I[Sar][Sar][NMeCha][Sar][X19]P[Ac5c][NMeV][NMeD]-Piperidide; lactam N-11) = 7.92

response.value for CC[C@H](C)[C@@H]1NC(=O)[C@H](CC(C)C)N(C)C(=O)C[C@@H](C(=O)N2CCCC2)NC(=O)[C@H](CC(C)C)NC(=O)C(C)(C)N(C)C(=O)[C@H](CC(C)C)NC(=O)[C@H](CCc2ccc(C(F)(F)F)c(F)c2)NC(=O)CN(C)C(=O)[C@H](Cc2ccc(Cl)cc2)N(C)C(=O)CN(C)C(=O)CN(C)C1=O [Compound 96] ([NMeL]I[Sar][Sar][NMePhe(4-Cl)][Sar][hPhe(3-F,4-CF3)]L[NMeAib]LD-Pyrrolidide; lactam N-11) (field: pIC50) = 6.66

----------
# MEASURED_ON: Kras and SOS1 (biotin-tagged human Kras loaded with GDP, His-tagged human SOS1) (Homo sapiens, UniProt P01116, G12D)
# Construct: made in house; host or cells: E. coli (stated for Kras only)
# MEASUREMENT_NOTES: Protein-protein interaction inhibition between Kras and SOS1 (KrasGl2D-SOS PPI) using AlphaScreen
# Assay type: binding
# CONDITIONS_USED: AlphaScreen; biotin-tagged human Kras loaded with GDP, His-tagged human SOS1; read-out: KRAS G12D-SOS PPI IC50
Positions of bridges follow the written chain, without caps; N, C: chain ends. Non-standard residues stand in square brackets, D forms with d. Residues, ends and D or L forms follow the SMILES beside them. hPhe(3-Cl-4-CF3) = N[C@@H](CCc1ccc(C(F)(F)F)c(Cl)c1)C(=O)O; NMePhe(3-CN) = CN[C@@H](Cc1cccc(C#N)c1)C(=O)O; NMePhe(4-Me) = CN[C@@H](Cc1ccc(C)cc1)C(=O)O; NMeI = CC[C@H](C)[C@H](NC)C(=O)O; NMeD = CN[C@@H](CC(=O)O)C(=O)O; NMeL = CN[C@@H](CC(C)C)C(=O)O; NMeA = CN[C@@H](C)C(=O)O; Ac5c = NC1(C(=O)O)CCCC1; Aze = O=C(O)[C@@H]1CCN1; Sar = CNCC(=O)O
MEASURED_PARAMETER: IC50
Field note: include the unit after the figure.

GET /value?item= CC[C@H](C)[C@@H]1NC(=O)[C@H](CC(C)C)N(C)C(=O)C[C@@H](C(=O)N(C)C)N(C)C(=O)[C@H]([C@@H](C)CC)N(C)C(=O)C2(CCCC2)NC(=O)[C@H](Cc2cccc(C#N)c2)N(C)C(=O)[C@H](CCc2ccc(C(F)(F)F)c(Cl)c2)NC(=O)CN(C)C(=O)[C@H](Cc2ccc(C)cc2)N(C)C(=O)[C@@H]2CCN2C(=O)[C@H](C)N(C)C1=O [Compound 2002] ([NMeL]I[NMeA][Aze][NMePhe(4-Me)][Sar][hPhe(3-Cl-4-CF3)][NMePhe(3-CN)][Ac5c][NMeI][NMeD]-NMe2; lactam N-11) &field=IC50 returns 3 nM

----------
What IC50 was measured for each of the following?
# MEASURED_ON: Kras and SOS1 (biotin-tagged human Kras loaded with GDP, His-tagged human SOS1) (Homo sapiens, UniProt P01116, G12D)
# Construct: made in house; host or cells: E. coli (stated for Kras only)
# MEASUREMENT_NOTES: Protein-protein interaction inhibition between Kras and SOS1 (KrasGl2D-SOS PPI) using AlphaScreen
# Format: binding
# CONDITIONS_USED: AlphaScreen; biotin-tagged human Kras loaded with GDP, His-tagged human SOS1; read-out: KRAS G12D-SOS PPI IC50
# Experimental: Protein-Protein Interaction Inhibition Between Kras and SOS1 (KrasGl2D-SOS PPI) Using AlphaScreen Protein-protein interaction inhibition (PPI) between Kras and SOS1 was measured by energy transfer from nickel-conjugated donor beads to streptavidin-conjugated acceptor beads using biotin-tagged human Kras expressed in E. coli and loaded with GDP after purification and His-tagged human SOS1 enzyme. […]
Positions of bridges follow the written chain, without caps; N, C: chain ends. Non-standard residues stand in square brackets, D forms with d. Residues, ends and D or L forms follow the SMILES beside them. *: point of attachment. hPhe(3-Cl-4-CF3) = N[C@@H](CCc1ccc(C(F)(F)F)c(Cl)c1)C(=O)O; NMePhe(4-CF3) = CN[C@@H](Cc1ccc(C(F)(F)F)cc1)C(=O)O; NMePhe(3-Me) = CN[C@@H](Cc1cccc(C)c1)C(=O)O; NMePhe(4-F) = CN[C@@H](Cc1ccc(F)cc1)C(=O)O; NMeGly(cPent) = CN[C@H](C(=O)O)C1CCCC1; NMeCha = CN[C@@H](CC1CCCCC1)C(=O)O; NMeE = CN[C@@H](CCC(=O)O)C(=O)O; NMeD = CN[C@@H](CC(=O)O)C(=O)O; NMeL = CN[C@@H](CC(C)C)C(=O)O; NMeV = CN[C@H](C(=O)O)C(C)C; d(β3hA) = C[C@@H](N)CC(=O)O; Morpholide = C1CN(*)CCO1; NMeA = CN[C@@H](C)C(=O)O; Piperidide = C1CCN(*)CC1; dNMeA = CN[C@H](C)C(=O)O; Ac5c = NC1(C(=O)O)CCCC1; Aze = O=C(O)[C@@H]1CCN1; Sar = CNCC(=O)O
Only the number, expressed in nM, is required.

Quick note, IC50 for CC[C@H](C)[C@@H]1NC(=O)[C@H](C)N(C)C(=O)C[C@@H](C)NC(=O)[C@H](C2CCCC2)N(C)C(=O)C2(CCCC2)NC(=O)[C@@H]2CCCN2C(=O)[C@H](CCc2ccc(C(F)(F)F)c(Cl)c2)NC(=O)[C@@H](C)N(C)C(=O)[C@H](Cc2cccc(C)c2)N(C)C(=O)CN(C)C(=O)CN(C)C1=O [Compound 1088] (cyclo([Ac5c][NMeGly(cPent)][d(β3hA)][NMeA]I[Sar][Sar][NMePhe(3-Me)][dNMeA][hPhe(3-Cl-4-CF3)]P)) landed at 170

According to the records, this compound CC[C@H](C)[C@@H]1NC(=O)[C@H](CC(C)C)N(C)C(=O)C[C@@H](C(=O)N2CCOCC2)N(C)C(=O)[C@H](C2CCCC2)N(C)C(=O)C2(CCCC2)NC(=O)[C@H](CCC(=O)NC)N(C)C(=O)[C@H](CCc2ccc(C(F)(F)F)c(Cl)c2)NC(=O)CN(C)C(=O)[C@H](CC2CCCCC2)N(C)C(=O)[C@@H]2CCN2C(=O)[C@H](C)N(C)C1=O [Compound 2111] ([NMeL]I[NMeA][Aze][NMeCha][Sar][hPhe(3-Cl-4-CF3)][NMeE](NHMe)[Ac5c][NMeGly(cPent)][NMeD]-Morpholide; lactam N-11) displays IC50 of 8.2

Recorded IC50 (compound CC[C@H](C)[C@@H]1NC(=O)[C@H](C)N(C)C(=O)C[C@@H](C)NC(=O)[C@H](C2CCCC2)N(C)C(=O)C2(CCCC2)NC(=O)[C@@H]2CCCN2C(=O)[C@H](CCc2ccc(C(F)(F)F)c(Cl)c2)NC(=O)[C@H]2CCCN2C(=O)[C@H](Cc2ccc(C(F)(F)F)cc2)N(C)C(=O)[C@@H]2CCN2C(=O)CN(C)C1=O [Compound 1522] (cyclo([Ac5c][NMeGly(cPent)][d(β3hA)][NMeA]I[Sar][Aze][NMePhe(4-CF3)][dP][hPhe(3-Cl-4-CF3)]P)) ): 90

Sure, the documented IC50 for CC[C@H](C)[C@@H]1NC(=O)[C@H](CC(C)C)N(C)C(=O)C[C@@H](C(=O)N2CCCCC2)NC(=O)[C@H](C(C)C)N(C)C(=O)C2(CCCC2)NC(=O)[C@@H]2CCCN2C(=O)[C@H](CCc2ccc(C(F)(F)F)c(Cl)c2)NC(=O)CN(C)C(=O)[C@H](CC2CCCCC2)N(C)C(=O)CN(C)C(=O)CN(C)C1=O [Compound 417] ([NMeL]I[Sar][Sar][NMeCha][Sar][hPhe(3-Cl-4-CF3)]P[Ac5c][NMeV]D-Piperidide; lactam N-11) is 15

Looking up CC[C@H](C)[C@@H]1NC(=O)[C@H](C)N(C)C(=O)C[C@@H](C(=O)N2CCCCC2)N(C)C(=O)[C@H](C(C)C)N(C)C(=O)C2(CCCC2)NC(=O)[C@@H]2CCCN2C(=O)[C@H](CCc2ccc(C(F)(F)F)c(Cl)c2)NC(=O)[C@@H](C)N(C)C(=O)[C@H](Cc2ccc(F)cc2)N(C)C(=O)CN(C)C(=O)CN(C)C1=O [Compound 1755] ([NMeA]I[Sar][Sar][NMePhe(4-F)][dNMeA][hPhe(3-Cl-4-CF3)]P[Ac5c][NMeV][NMeD]-Piperidide; lactam N-11) , I see its IC50 listed as 7.9
